# Species on record: Rattus norvegicus
# assay.summary: Open TG-GATES - Regimen: Single
# Assay type: toxicity, organism-based, Sprague-Dawley
# Parameters: regimen Single, gender Male, age 6 weeks
# setup.conditions: in vivo, po, 0 mg/kg, 6 h, tissue Blood, route gavage, dose level Control
measured.metric: Plat (x10_4/uL)

C#C[C@]1(O)CC[C@H]2[C@@H]3CCc4cc(O)ccc4[C@H]3CC[C@@]21C: 123.8
O=C(O)c1cccnc1: 116.7
CC(=O)Oc1cc(C(C)C)c(OCCN(C)C)cc1C: 129.2
CCC(C)(C)C(=O)O[C@H]1C[C@@H](C)C=C2C=C[C@H](C)[C@H](CC[C@@H]3C[C@@H](O)CC(=O)O3)[C@H]21: 111.5
C[C@](N)(Cc1ccc(O)c(O)c1)C(=O)O: 120.7

* * *

Measured WBC by item
# Species: Rattus norvegicus
# assay.summary: Open TG-GATES - Regimen: Daily Repeat
# Format: toxicity, organism-based, Sprague-Dawley
# Set-up: regimen Daily Repeat, gender Male, age 6 weeks
# setup.conditions: in vivo, po, 100 mg/kg, […], tissue Blood, route gavage, dose level Low, time 7 day
measured.metric: WBC (x10_2/uL)

O=C(N[C@H](CO)[C@H](O)c1ccc([N+](=O)[O-])cc1)C(Cl)Cl [CHLORAMPHENICOL]: 90.7
CCN1CCCC1CNC(=O)c1cc(S(N)(=O)=O)ccc1OC (centres undefined) [SULPIRIDE]: 106.6
O=C(O)c1cccnc1 [NIACIN]: 109.2
CC(C)(S)[C@@H](N)C(=O)O [PENICILLAMINE]: 102.7

* * *

// values below are reported RALB
# Species on record: Rattus norvegicus
# assay.summary: Open TG-GATES - Regimen: Daily Repeat
# Format: toxicity, organism-based, Sprague-Dawley
# Design: regimen Daily Repeat, gender Male, age 6 weeks
# setup.conditions: in vivo, po, 1000 mg/kg, […], tissue Plasma, route gavage, dose level High, time 7 day
measured.metric: RALB (g/dL)

O=C(O)c1cccnc1 [NIACIN]: 3
CC(C)(S)[C@@H](N)C(=O)O [PENICILLAMINE]: 2.8
CCN1CCCC1CNC(=O)c1cc(S(N)(=O)=O)ccc1OC (centres undefined) [SULPIRIDE]: 2.7
O=C(N[C@H](CO)[C@H](O)c1ccc([N+](=O)[O-])cc1)C(Cl)Cl [CHLORAMPHENICOL]: 2.7

* * *

# Organism: Rattus norvegicus
# assay.summary: Open TG-GATES - Regimen: Single
# Assay type: toxicity, organism-based, Sprague-Dawley
# Parameters: regimen Single, gender Male, age 6 weeks
# setup.conditions: in vivo, po, 0 mg/kg, 24 h, tissue Plasma, route gavage, dose level Control
Form field: ALP (one value per entry).
measured.metric: ALP (IU/L)

CC(=O)Oc1cc(C(C)C)c(OCCN(C)C)cc1C: 1643.4
Oc1ncnc2[nH]ncc12: 987.2
CCN1CCCC1CNC(=O)c1cc(S(N)(=O)=O)ccc1OC (stereo unspecified) [SULPIRIDE]: 1626.2
Nc1nc(N)c2nc(-c3ccccc3)c(N)nc2n1: 1674.6
CCSCC[C@H](N)C(=O)O: 936
C[C@](N)(Cc1ccc(O)c(O)c1)C(=O)O: 1858.4

* * *

# Organism: Rattus norvegicus
# assay.summary: Open TG-GATES - Regimen: Daily Repeat
# Format: toxicity, organism-based, Sprague-Dawley
# Set-up: regimen Daily Repeat, gender Male, age 6 weeks
# setup.conditions: in vivo, po, 1000 mg/kg, […], route gavage, dose level High, time 14 day
TERMINAL_BW for assorted compounds
measured.metric: TERMINAL_BW (g)

CCN1CCCC1CNC(=O)c1cc(S(N)(=O)=O)ccc1OC (centres undefined) [SULPIRIDE]: 307.6
O=C(O)c1cccnc1 [NIACIN]: 315.4
O=C(N[C@H](CO)[C@H](O)c1ccc([N+](=O)[O-])cc1)C(Cl)Cl [CHLORAMPHENICOL]: 327.3
CC(C)(S)[C@@H](N)C(=O)O [PENICILLAMINE]: 282

* * *

# Species: Rattus norvegicus
# assay.summary: Open TG-GATES - Regimen: Daily Repeat
# Assay type: toxicity, organism-based, Sprague-Dawley
# Design: regimen Daily Repeat, gender Male, age 6 weeks
# setup.conditions: in vivo, po, 0 mg/kg, 72 h, tissue Kidney, route gavage, dose level Control, time 3 day
measured.metric: KIDNEY_TOTAL (g)

CN1C(=O)OC(C)(C)C1=O: 2
CC(C)(S)[C@@H](N)C(=O)O: 1.9
O=C(N[C@H](CO)[C@H](O)c1ccc([N+](=O)[O-])cc1)C(Cl)Cl: 2.2
CC(C)C(=O)Nc1ccc([N+](=O)[O-])c(C(F)(F)F)c1 [FLUTAMIDE]: 2
C[C@](N)(Cc1ccc(O)c(O)c1)C(=O)O: 1.8
CCN1CCCC1CNC(=O)c1cc(S(N)(=O)=O)ccc1OC (stereo not given) [SULPIRIDE]: 2.1
CC(=O)Oc1cc(C(C)C)c(OCCN(C)C)cc1C: 1.9
CCC(C)(C)C(=O)O[C@H]1C[C@@H](C)C=C2C=C[C@H](C)[C@H](CC[C@@H]3C[C@@H](O)CC(=O)O3)[C@H]21: 2
Oc1ncnc2[nH]ncc12: 2.1
CCSCC[C@H](N)C(=O)O: 2.1

* * *

AST values for the compounds below.
# Organism: Rattus norvegicus
# assay.summary: Open TG-GATES - Regimen: Daily Repeat
# Assay type: toxicity, organism-based, Sprague-Dawley
# Set-up: regimen Daily Repeat, gender Male, age 6 weeks
# setup.conditions: in vivo, po, 0 mg/kg, […], tissue Plasma, route gavage, dose level Control, time 28 day
measured.metric: AST (IU/L)

CC(C)C(=O)Nc1ccc([N+](=O)[O-])c(C(F)(F)F)c1 [FLUTAMIDE]: 50
CCc1oc2ccccc2c1C(=O)c1cc(I)c(O)c(I)c1: 57
Oc1ncnc2[nH]ncc12: 61.8
C[C@]12CCC(=O)C=C1CC[C@@H]1[C@@H]2CC[C@@]2(C)[C@H]1CC[C@]2(C)O: 62.2
C[C@](N)(Cc1ccc(O)c(O)c1)C(=O)O: 59
CCN1CCCC1CNC(=O)c1cc(S(N)(=O)=O)ccc1OC (stereo unspecified) [SULPIRIDE]: 63.8

* * *

# Species: Rattus norvegicus
# assay.summary: Open TG-GATES - Regimen: Daily Repeat
# Format: toxicity, organism-based, Sprague-Dawley
# Design: regimen Daily Repeat, gender Male, age 6 weeks
# setup.conditions: in vivo, po, 0 mg/kg, […], tissue Blood, route gavage, dose level Control, time 7 day
Listing of recorded MCH by entry.
measured.metric: MCH (pg)

CC(=O)Oc1cc(C(C)C)c(OCCN(C)C)cc1C: 20.7
CC(=N)S [THIOACETAMIDE]: 20.8
Oc1ncnc2[nH]ncc12: 20.4
O=C(N[C@H](CO)[C@H](O)c1ccc([N+](=O)[O-])cc1)C(Cl)Cl: 21.4
CC(C)(S)[C@@H](N)C(=O)O: 21
CC(C)C(=O)Nc1ccc([N+](=O)[O-])c(C(F)(F)F)c1 [FLUTAMIDE]: 21.1
Nc1nc(N)c2nc(-c3ccccc3)c(N)nc2n1: 20.6
CCN1CCCC1CNC(=O)c1cc(S(N)(=O)=O)ccc1OC (stereo not drawn) [SULPIRIDE]: 20.7

* * *

# Species: Rattus norvegicus
# assay.summary: Open TG-GATES - Regimen: Single
# Type: toxicity, organism-based, Sprague-Dawley
# Set-up: regimen Single, gender Male, age 6 weeks
# setup.conditions: in vivo, po, 0 mg/kg, 3 h, tissue Plasma, route gavage, dose level Control
Threshold rule: ALT greater than or equal to 40 IU/L is true; below that, false.

CCc1oc2ccccc2c1C(=O)c1cc(I)c(O)c(I)c1: false
O=C(N[C@H](CO)[C@H](O)c1ccc([N+](=O)[O-])cc1)C(Cl)Cl: true
CCSCC[C@H](N)C(=O)O: false
C[C@](N)(Cc1ccc(O)c(O)c1)C(=O)O: true

* * *

# Organism: Rattus norvegicus
# assay.summary: Open TG-GATES - Regimen: Single
# Type: toxicity, organism-based, Sprague-Dawley
# Set-up: regimen Single, gender Male, age 6 weeks
# setup.conditions: in vivo, po, 0 mg/kg, 9 h, tissue Plasma, route gavage, dose level Control
Parameter BUN: see the listing below.
measured.metric: BUN (mg/dL)

CCN1CCCC1CNC(=O)c1cc(S(N)(=O)=O)ccc1OC (configuration not stated) [SULPIRIDE]: 7.6
CCc1oc2ccccc2c1C(=O)c1cc(I)c(O)c(I)c1: 9.8
Oc1ncnc2[nH]ncc12: 12.4
CCSCC[C@H](N)C(=O)O: 10
C[C@](N)(Cc1ccc(O)c(O)c1)C(=O)O: 10.2
Nc1nc(N)c2nc(-c3ccccc3)c(N)nc2n1: 10
O=C(O)c1cccnc1: 11.8
